- METHOD: E. coli DRC41 culture turbidity changes, primary screen, E. coli filamentation inducer project, strain DRC41, OD650, 48 h (AID 1152);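 also: E. coli MC1000 strain DRC41 lacking acrAB efflux pump and sulA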
- RECORDED CONDITIONS: E. coli DRC41 (acrAB sulA), higher = more signal, called active from +8 up or from −8 down
z-score below -0.5 gives not met; z-score at or above it gives met.

# MOLECULE, CAT
records = [
    ("CCC[C@@H]1C[C@@]1(CCC)[C@@H](NP(=O)(c1ccccc1)c1ccccc1)c1ccc(Cl)cc1", "not met"),
    ("C=C(/C=C/CNS(=O)(=O)c1ccc(C)cc1)[C@H](O)[C@H]1CCCN1S(=O)(=O)c1ccccc1[N+](=O)[O-]", "met"),
    ("COC(=O)[C@@]1(Cc2ccc(OC)cc2)[C@H]2c3cc(C(=O)N(C)C)n(Cc4ccccc4)c3C[C@H]2CN1C(=O)c1ccccc1", "not met"),
    ("NC(=O)NCC#Cc1ccc2c(c1)[C@]1(C(=O)N2)[C@H](C(=O)O)[C@H]2C(=O)O[C@H](c3ccccc3)[C@H](c3ccccc3)N2[C@@H]1c1ccccc1OCCO", "met"),
    ("COC(=O)[C@@]1(Cc2ccccc2)[C@H]2c3cc(C(=O)N4CCCC4)n(C[C@H](O)CO)c3C[C@H]2CN1C(=O)c1ccccc1", "not met"),
    ("COCCOC(=O)N1C(=O)[C@@]2(c3cc(C#CCNC(N)=O)ccc31)[C@H](C(=O)N1CCCCCCC1)[C@H]1C(=O)O[C@H](c3ccccc3)[C@H](c3ccccc3)N1[C@@H]2c1ccc(O)cc1", "met"),
    ("[N-]=[N+]=Nc1ccccc1C[C@]1(C(=O)NCc2ccccc2)N=C(c2ccc(OCCCO)cc2)O[C@H]1c1ccccc1", "met"),
    ("C=C[C@@H](COC(C)=O)NS(=O)(=O)c1ccc(Br)cc1", "met"),
    ("CCOC(=O)C[C@H]1[C@H](OC(=O)c2ccccc2-c2ccccc2)[C@@H](NC(=O)c2ccc3ccccc3n2)c2cc(OCCCO)ccc2N1C(=O)c1ccc2ccccc2n1", "met"),
    ("O=C1O[C@@H](c2ccccc2)[C@@H](c2ccccc2)N2[C@@H](c3ccccc3OCCO)[C@]3(C(=O)Nc4ccc(C#CCCO)cc43)[C@@H](C(=O)N3CCN(c4ncccn4)CC3)[C@H]12", "met"),
    ("C[C@H]1C2=C3C(CC[C@H]4C(OCc5ccc(F)cc5C(F)(F)F)OC[C@](C)([C@@H]34)N(C(=O)OC(C)(C)C)C2)C2COC(=O)OCC21 (some centres not stated)", "not met"),
    ("COc1ccc(NC(=O)O[C@H]2[C@H](OC(=O)Nc3ccc4c(c3)OCO4)[C@@H](OC(=O)Nc3ccc4c(c3)OCO4)[C@@H](OC)O[C@@H]2CO)cc1", "met"),
]

====

Quick reference for composite z-score among some compounds
- MEASURED TARGET: Torsin-1A (Homo sapiens)
- METHOD: torsin A binders from cell lysate, primary screen, small-molecule microarray, wild-type, 635/667 nm (AID 1149)
- RECORDED CONDITIONS: COS7 hTOR1A-WT lysate, 635 nm fluorescence, higher = more signal

# COMPOUND, composite z-score
measured = [
    ("O=C(N1CCCCC1)[C@@]1(Cc2ccccc2)COC(c2ccc(OCCCO)cc2)=N1", 0.442),
    ("COc1cc(CO)cc(I)c1O[C@H]1C=C(C(=O)NCCO)C[C@@H](N(Cc2ccc(F)cc2)C(=O)C2CCCO2)[C@@H]1O (some centres not stated)", -0.0326),
    ("COCCOC(=O)N1C(=O)[C@@]2(c3cc(C#CCNC(N)=O)ccc31)[C@H](C(=O)N1CCCCCCC1)[C@H]1C(=O)O[C@H](c3ccccc3)[C@H](c3ccccc3)N1[C@@H]2c1ccc(O)cc1", 0.266),
    ("C=CCN1C(=O)[C@]2(CC=C)N=C(c3ccc(OCCCO)cc3)O[C@@H]2c2ccccc21", 0.265),
    ("CCCc1cccc(=O)o1", 1.08),
    ("CC(CO)N1C(=O)[C@@H]2C3C(=O)OCCC/C=C\\[C@H]3OC23C=CCN(Cn2nnc4ccccc42)C(=O)[C@@H]13 (some centres not stated)", -1.02),
    ("COCCOC(=O)N1C(=O)[C@@]2(c3ccccc31)[C@H](c1ccc(OCCO)cc1)N1[C@H](c3ccccc3)[C@H](c3ccccc3)OC(=O)[C@H]1[C@@H]2C(=O)Nc1nc2ccccc2s1", 0.73),
]
